As shown below, each of these binders has a reported EC50 value.
- assay target: T1, human CD276 polypeptide (antigen of the ELISA of Clones #1-#8) (human, UniProt Q5ZPR3 29-461, limits assumed)
- T1 construct: For panning it was fused at its C-terminus to human IgG1 Fc (CD276-Fc); also called B7-H3
- T1 sequence: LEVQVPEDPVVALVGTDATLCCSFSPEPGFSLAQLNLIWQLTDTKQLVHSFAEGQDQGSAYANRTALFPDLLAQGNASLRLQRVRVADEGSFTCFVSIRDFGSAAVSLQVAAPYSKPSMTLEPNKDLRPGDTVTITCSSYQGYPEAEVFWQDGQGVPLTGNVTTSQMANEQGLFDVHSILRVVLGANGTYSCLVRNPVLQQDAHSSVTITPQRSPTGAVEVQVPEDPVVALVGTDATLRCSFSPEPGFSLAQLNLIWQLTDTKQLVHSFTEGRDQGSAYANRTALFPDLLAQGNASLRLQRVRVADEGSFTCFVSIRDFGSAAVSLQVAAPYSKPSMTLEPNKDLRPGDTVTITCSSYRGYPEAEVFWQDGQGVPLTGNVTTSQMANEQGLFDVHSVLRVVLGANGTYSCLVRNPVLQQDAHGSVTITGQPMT
- assay text: ELISA on a human CD276 polypeptide
# value in nM; strip the unit string

Example entries begin here.
# binder, value unit, EC50
rows = [
    ("Clone #7 (ab7) (VHH, also called #7 (VH domain)) VHH: EVQLVESGGGLVQPGGSLRLSCAASGFTFSSYAMSWVRQAPGQGLEWIGEINHSGSTNYNPSLKSRVTISRDNSKNTLYLQMNSLRAEDTAVYYCVHIDYWGQGTLVAVSS", "nM", 0.6),
    ("Clone #5 (ab5) (VHH, also called #5 (VH domain)) VHH: EVQLVESGGGLVQPGGSLRLSCAASPFPFTIYEMSWVRQASGKALEWIGYINHSGSTNYNPSLKSRVTISRDNSKNTLYLQMNSLRAEDTAMYYCAILAPDYWGQGTLVTVSS", "nM", 1.2),
    ("Clone #3 (ab3) (Fab, V domains shown, also called #3 (Fab)) VH: QVQLVESGGGLVKPGGSLRLSCAASGFTFSDYYMSWIRQAPGKGLEWVSYISSSGSTIYYADSVKGRFTISRDNAKNSLYLQMNSLRAEDTAVYYCARRGGSYYARGAFDIWGQGTMVTVSS VL: DIQMTQSPSSLSASVGDRVTITCRASQSISSYLNWYQQKPGKAPKLLIYAASSLQSGVPSRFSGSGSGTDFTLTISSLQPEDAATYYCQHRSDWPPKFTFGPGTKVDIKR", "nM", 26),
]

# input Answer with the recorded EC50 for the binder listed here: Clone #6 (ab6) (VHH, also called #6 (VH domain)) VHH: EVQLVESGGGLVQPGGSLRLSCAASGSPFPHYEMSWVRQAPGKGLEWMGWINTNTGKSTYAQGFTGRFTISRDNSKNTLYLQMNSLRAEDTAVYYCARSGYGYYFDYWGQGTLVTVSS
# output 10

# input Using known records, supply EC50 for Clone #2 (ab2) (Fab, V domains shown, also called #2 (Fab)) VH: QVQLVESGGGLVKPGGSLRLSCAASGFTFSDYYMSWIRQAPGKGLEWVSYISSSGSTIYYADSVKGRFTISRDNAKNSLYLQMNSLRAEDTAVYYCARRGAMGHHDGFDMWGLGTMVTVSS VL: DIQMTQSPSSLSASVGDRVTITCRASQSISSYLNWYQQKPGKAPKLLIYAASSLQSGVPSRFSGSGSGTDFTLTISSLQPEDVAVYYCQQRSNWPLYTFGQGTKLEIKR
# output 46

# input Hello, please tell me recorded EC50 for this one: Clone #1 (ab1) (Fab, V domains shown, also called #1 (Fab)) VH: QVQLVESGGGLVKPGGSLRLSCAASGFTFSDYYMSWIRQAPGKGLEWVSYISSSGSTIYYADSVKGRFTISRDNAKNSLYLQMNSLRAEDTAVYYCARGINFGLDIWGQGTTVTVSS VL: DIQMTQSPSSLSASVGDRVTITCRASQSISSYLNWYQQKPGKAPKLLIYAASSLQSGVPSRFSGSGSGTDFTLTISSLQPEDVGVYYCMQALQTLFGQGTKVDIKR
# output 34

# input Provide only the value of recorded EC50 for Clone #4 (ab4) (VHH, kind VHH is used for single domain; also called #4 (VH domain)) VHH: EVQLVESGGGLVQPGGSLRLSCAASWFDFQDYDMSWVRQAPGKGLEWIGEINHSGSTNYNPSLKSRVTISRDNSKNTLYLQMNSLRAEDTAVYYCAKIGYWGQGTLVTVSS
# output 0.9
